// data source = PubChem BioAssay (NCI)

- Tested on: RPMI-8226 leukemia
- experiment description: NCI tumour cell line growth inhibition, 48 h
Entries and their TGI

O=[P+](O)c1cccs1: > 100 µM

Response field TGI (RPMI-8226 leukemia) for item "OCCSCc1cc(Cl)cc(Cl)c1O" : > 100 µM

TGI on RPMI-8226 leukemia for "O=S1CCN(Cc2ccc(-c3ccc4ncnc(Nc5ccc(OCc6ccccc6)c(F)c5)c4c3)o2)CC1" is > 25 µM

Readout TGI for CC(=O)NC1CCCN(O)C(=O)/C=C(/C)CCOC(=O)C(NC(C)=O)CCCN(O)C(=O)/C=C(/C)CCOC(=O)C(NC(C)=O)CCCN(O)C(=O)/C=C(/C)CCOC1=O.[Fe] (stereo not drawn) , test system RPMI-8226 leukemia, was > 100 µM

Recorded TGI for CC(=O)C(CN(C)Cc1ccccc1)C(c1ccccc1)c1c(O)c2ccccc2oc1=O (stereo not drawn) on RPMI-8226 leukemia was > 100 µM

Measured on RPMI-8226 leukemia, NC(Cn1ccc(=O)c(O)c1)C(=O)O (stereo not drawn) has a documented TGI of > 100 µM

The value of TGI recorded for Clc1cc2nnn(C3CCCCO3)c2cc1Cl (stereo not drawn) when tested on RPMI-8226 leukemia reads > 100 µM

So the reported TGI for "O=[N+]([O-])c1ccc(N/N=C/c2ccccc2O)nc1" , on RPMI-8226 leukemia, turned out to be > 100 µM

# TGI measured on RPMI-8226 leukemia for item "Cc1ccc(N(C)S(=O)(=O)c2ccccc2)cc1" = > 100 µM

Let me check: "O=[N+]([O-])c1ccc(/C=N/n2c(CCc3n[nH]c(=S)n3/N=C/c3ccc([N+](=O)[O-])o3)n[nH]c2=S)o1" , system RPMI-8226 leukemia, measured TGI is > 100 µM

The recorded TGI with RPMI-8226 leukemia for Cc1ccc([S+](c2ccccc2)c2cc(C)ccc2C)cc1 (stereo not drawn) was > 100 µM

The recorded TGI with RPMI-8226 leukemia for "Oc1[nH]c2ccc(Cl)cc2c1/C=c1/ccc2c(c1)N=C(c1ccc(C(F)(F)F)cc1)N=2" was 5.44 µM

Value (TGI, RPMI-8226 leukemia) for record "O=Cc1c[nH]c2ccc(-c3csc4ccccc34)cc12" = 7.49 µM

Let me check: COc1cc(C2CC(=O)c3c(C)nn(-c4nc5ccccc5[nH]4)c3C2)cc(OC)c1OC (stereo not drawn) , system RPMI-8226 leukemia, measured TGI is > 100 µM

Observed TGI, RPMI-8226 leukemia, "O=C(O)c1ccccc1-c1ccccc1C(=O)Nc1ccc2c(c1)Cc1ccccc1-2" : 70.4 µM

Field TGI (RPMI-8226 leukemia), entry "O=NN(CCCl)C(=O)Nc1ccc(Cl)c(Cl)c1" : > 100 µM

Summary: "c1csc(-c2cscc2-c2cccs2)c1" , RPMI-8226 leukemia, TGI = > 100 µM

The compound "O=C1C=CC(=O)c2c1cc1ccccc1c2O" , when measured on RPMI-8226 leukemia, yielded TGI of > 26 µM

Reported TGI (RPMI-8226 leukemia) for entry "CCN1CCN(CC(=O)Nc2nc3ccc(NCc4ccc(C)cc4)cc3s2)CC1" is 3.34 µM

I looked up "CC[C@@]1(O)C(=O)OCc2c1cc1n(c2=O)Cc2cc3c(Cl)c4c(cc3nc2-1)OCO4" and its TGI for RPMI-8226 leukemia was 4.38 µM

Entry "N#Cc1nc(-c2ccccc2O)oc1N" : TGI on RPMI-8226 leukemia = > 100 µM

// compound CC1C(O)[C@@]2(OC[C@@]34C(=O)CC5(O)[C@H](CCC6Cc7nc8c(nc7C[C@]65C)CC5CC[C@@H]6C7=C[C@H]9O[C@@]%10(O[C@@](C)(CO)C[C@@H]%10O)C(C)[C@@]9(O)[C@]7(C)[C@@H](O)CC6[C@]5(C)C8)C3=CC[C@H]4C2C)OC1(C)C (stereo partly drawn) , assay RPMI-8226 leukemia, TGI value: < 0.000355 µM

Measured TGI (RPMI-8226 leukemia), entry "O=c1c(-c2ccc3c(c2)OCO3)coc2c(CO)c(O)ccc12" : 53.6 µM

* * *

- Test system: NCI-H460 lung
- experiment description: NCI tumour cell line growth inhibition, 48 h
// reported TGI for each item listed

These solved cases illustrate the format of a correct answer.
COC(=O)NN/C=C(\C=Nc1ccccc1)[N+](=O)[O-]: > 100 µM
Cc1ccc(S(=O)(=O)Nc2cccc(C)c2C)cc1: > 100 µM
NC(Cn1ccc(=O)c(O)c1)C(=O)O (stereo unspecified): > 100 µM

Now consider a different molecule.
Measured TGI (NCI-H460 lung), entry "O=C(OCC(Cl)(Cl)Cl)N1CC[C@@H](C2CCCCC2)C1" : 43.8 µM

* * *

- System: HOP-62 NSCLC
- experiment description: NCI tumour cell line growth inhibition, 48 h
Reported TGI values follow for various compounds

Completed entries (count: 2):
O=C(Nc1ccccc1)c1cc2c(cc1Cl)SC(NNCCO)=NS2(=O)=O: > 100 µM
CC(=O)C1=C(C)N(c2ccc(C)cc2)C2(O)C=CC(=O)C3=C(O)c4ccccc4C(=O)C312 (stereo unspecified): > 100 µM

Short answer for COc1cccc(C(C#N)NC23CC4CC(CC(C4)C2)C3)c1 (stereo unspecified) : TGI was > 100 µM

Per the records, this compound ( "O=C1CCCC(=O)N1n1c(Cc2ccc(Cl)cc2)n[nH]c1=O" ) has TGI equal to > 100 µM

* * *

- System: OVCAR-8 ovarian
- experiment description: NCI tumour cell line growth inhibition, 48 h
compounds and their reported GI50

For orientation, consider the following solved cases.
O=C1c2ccccc2-c2c1c1c(O)cccc1n2CCCc1ccccc1: 31.7 µM
Cc1ccn2c(-c3csc(Nc4cccc(O)c4)n3)c(C)nc2c1: 0.611 µM
O=Cc1c[nH]c2ccc(-c3csc4ccccc34)cc12: 3.47 µM

Measured GI50 for this entry "Cc1cc(Br)c2nsnc2c1[N+](=O)[O-]" on OVCAR-8 ovarian: 3.18 µM

* * *

- Tested on: MOLT-4 leukemia
- experiment description: NCI tumour cell line growth inhibition, 48 h
readout type: TGI

Item: "COc1cc(-c2ccccc2)c(OC)cc1CCl" | System: MOLT-4 leukemia | TGI: > 100 µM

"COc1ccc(/C=c2\sc3nnc(CCC(=O)Nc4cccc(C(F)(F)F)c4)n3c2=O)cc1" on MOLT-4 leukemia gives TGI = > 27.4 µM

* * *

Recorded TGI for the following compounds
- System: HL-60(TB) leukemia
- experiment description: NCI tumour cell line growth inhibition, 48 h
Quick note: give the figure in µM, leave out the unit.

Briefly, TGI measured for "CC1=C(C(=O)Nc2cccc(C(F)(F)F)c2)C(c2ccccc2F)C(C(=O)Nc2cccc(C(F)(F)F)c2)=C(C)N1" : 7.98

* * *

- Tested on: EKVX NSCLC
- experiment description: NCI tumour cell line growth inhibition, 48 h
readout type: GI50

C=C1C(=O)O[C@H]2[C@H]1CC/C(COC(=O)c1cccc3ccccc13)=C\CC[C@@]1(C)O[C@@H]21: 1.81 µM

Record summary for "CCCCCCCCn1ccc2cc(NC(=O)Cn3cc(CN4CCC(C)CC4)nn3)ccc21" : reported GI50 = 1.67 µM

For this molecule ( "COc1ccc(-c2nnc(Nc3nc(O)c(C4=c5cc(OC(F)(F)F)ccc5=NC4=O)s3)o2)cc1" ), measured GI50 is 31.6 µM

Record "CCOC(=O)C1=C(C)NC(C)=C(C(=O)OCC)C1c1cc(Br)c(O)c(OC)c1" . Reported GI50: 7.65 µM

Sure, the documented GI50 for "CCc1ccc(Oc2nccc(-c3c(-c4ccc(F)cc4)ncn3C3CCNCC3)n2)cc1" is 7.2 µM

Notebook: "CCN1CCN(CC(=O)Nc2nc3ccc(NCc4ccc(C)cc4)cc3s2)CC1" , GI50 read as 5.67 µM

Notebook: Cc1ccc(C2NC(=S)N3C(c4ccc(C)cc4)NC(=S)N23)cc1 (stereo unspecified) , GI50 read as 7.93 µM

// GI50 value for "O=S1CCN(Cc2ccc(-c3ccc4ncnc(Nc5ccc(OCc6ccccc6)c(F)c5)c4c3)o2)CC1" : 0.212 µM

"O=C1NC(=O)C(N2CCc3ccccc32)=C1c1ccc(Cl)cc1" has a reported GI50 of > 24.1 µM

Memo: "Cc1cc(Br)c2nsnc2c1[N+](=O)[O-]" , reported GI50: 1.76 µM

Reported GI50 ( Cc1cn(C2CC(N=[N+]=[N-])C(CO)O2)c(=O)[nH]c1=O (stereo unspecified) ) = > 1000 µM

* * *

A collection of compounds and their measured TGI
- Test system: LOX IMVI melanoma
- experiment description: NCI tumour cell line growth inhibition, 48 h

Below are worked cases with known answers.
O=C(Nc1ccc(Cl)cc1Cl)c1cc2nc3ccccc3c(=O)n2c2ccccc12: > 10 µM
Clc1ccc(/C=C/c2nc(-c3ccc(Cl)cc3)cn3c2nc2ccccc23)cc1: > 100 µM
CC1=C(S(=O)c2ccc(C)cc2)CCC2(CCCCO2)O1 (configuration not stated): > 100 µM
CCOC(=O)c1ncn2c1[nH]c(=O)c1ccccc12: > 100 µM
Nc1nccc2c1ncn2C1C=C(CO)C(O)C1O (configuration not stated): > 1000 µM

Here Nc1cccc2c1CN(C1CCC(=O)NC1=O)C2=O (configuration not stated) was tested on LOX IMVI melanoma, and its TGI came to > 100 µM

Readout TGI for "O=CN(O)CC(=O)O.[Ni]" , test system LOX IMVI melanoma, was > 100 µM

TGI of "O=C1NC(=O)/C(=C/c2ccc(S(=O)(=O)N/N=C/c3ccccc3)cc2)N1" , assay on LOX IMVI melanoma, is > 100 µM

Param item: "CSc1ncc2c(C#N)c3ccccn3c(=O)c2n1" ; param system: LOX IMVI melanoma; output TGI: > 100 µM

Log: LOX IMVI melanoma, compound COC(=O)CCN1CCN(CCO)CC1C (configuration not stated) , TGI = > 10 µM

Known value: LOX IMVI melanoma TGI of the compound "COC(=O)NN/C=C(\C=Nc1ccccc1)[N+](=O)[O-]" equals > 100 µM

TGI for LOX IMVI melanoma with input CCCCCCCCCCCCNC(=O)[C@H]1CSC(c2cc(Br)cs2)N1 (some centres not stated) equals 1.56 µM

Tested system LOX IMVI melanoma; TGI recorded for "[O-]/N=N\c1on[n+](CCc2ccccc2)c1Cc1c(/N=N/[O-])on[n+]1CCc1ccccc1" was > 100 µM

Fill in: LOX IMVI melanoma TGI for "O=S1CCN(Cc2ccc(-c3ccc4ncnc(Nc5ccc(OCc6ccccc6)c(F)c5)c4c3)o2)CC1" = > 23.4 µM
